run-description: NCI Yeast Anticancer Drug Screen. Data for the cln2 rad14 strain (AID 165);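 further: 0% = growth equal to vehicle treated cultures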
run-conditions: S. cerevisiae cln2 rad14 strain, at 50.0 µM, active compounds read high
Compounds without any hit were thinned out: in the full panel of roughly 79,000, 15% have a hit.
Below, each entry is listed alongside its reported growth inhibition.
Give the quantity in %, number only.

Consider the following illustrative entries.
>  <molecule>
COC1=CC(=O)c2ccc(C(C)C)cc2C1(C)C1=NC(C)(C)CO1 (stereo unspecified)

>  <reported-property>
growth inhibition

>  <numeric-result>
16.8

$$$$
>  <molecule>
CCC(CC)COC(=O)c1ccccc1C(=O)OCC(CC)CC

>  <reported-property>
growth inhibition

>  <numeric-result>
3.6

$$$$
>  <molecule>
O=C1Nc2ccccc2/C1=N\[O-].O=C1Nc2ccccc2/C1=N\[O-].[Cu+2]

>  <reported-property>
growth inhibition

>  <numeric-result>
-0.3

$$$$

Next up:
I am curious: what growth inhibition value has been reported for O=C(Nc1ccc(Br)cc1)c1cc(Cl)cc(Cl)c1Br ?
-11.6

###

Below, each entry is listed alongside its reported growth inhibition.
run-description: NCI Yeast Anticancer Drug Screen. Data for the rad50 strain (AID 155);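 further: 0% = growth of vehicle-only cultures of the same strain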
run-conditions: S. cerevisiae rad50 strain growth inhibition; at 50.0 µM; active compounds read high
This is part of a sample that, as a whole, favours compounds with a hit. Of some 79,000 tested, about 15% had one in any assay.
Give the quantity in %, number only.

I am curious: what growth inhibition value has been reported for COC(=O)c1ccccc1NC(=O)c1cc(C(=O)O)c(C(=O)Nc2ccccc2C(=O)OC)cc1C(=O)O ?
0.75

Moving on to O=[N+]([O-])c1ccc(/C(=C/c2ccc(F)cc2)S(=O)(=O)c2ccccc2)o1
37.4

Moving on to O=C(OCC(F)(F)C(F)(F)C(F)(F)C(F)(F)C(F)(F)C(F)F)OCC(F)(F)C(F)(F)C(F)(F)C(F)(F)C(F)(F)C(F)F
0.1

Moving on to CC1C[P+](c2ccccc2)(c2ccccc2)Cc2ccccc21 (stereo not given)
3.4

Moving on to O=C1CCC(c2ccccc2)C(O)(C(=O)O)C1 (stereo not given)
6.45

###

Below, each entry is listed alongside its reported growth inhibition.
run-description: NCI Yeast Anticancer Drug Screen. Data for the rad50 strain (AID 155);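 further: 0% = growth of vehicle-only cultures of the same strain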
run-conditions: S. cerevisiae rad50 strain growth inhibition; at 50.0 µM; active compounds read high
The panel holds about 79,000 compounds, 15% with a hit somewhere; the sample as a whole holds those more often. Activity calls are given as the source filed them. No stated cut-off is given here; in the data, active means growth inhibition above about 70%; inactive means the rest.

Consider the following illustrative entries.
>  <compound>
Cc1ccc2c(c1)nc(-c1ccccn1)n2CCc1ccncc1

>  <result>
62.5% (inactive)

$$$$
>  <compound>
Cn1cc(-c2ccccc2)cc1-c1ccccc1

>  <result>
-11.4% (inactive)

$$$$
>  <compound>
Fc1ccccc1/C=C/c1cnnc2ccccc12

>  <result>
19.9% (inactive)

$$$$

I am curious: what growth inhibition value has been reported for CCS(=O)(=O)c1ccc(NC(=O)OC2CCCCCC2)cc1 ?
-2.65% (inactive)

Moving on to Cc1ccccc1/C=N\N=C\c1ccco1
-0.5% (inactive)

Moving on to C/C=C(/C)C(C#N)(CCC)C(=O)OCC (configuration not stated)
5.9% (inactive)

Moving on to CCc1c(NCCO)c(C(=O)NCCO)c2nc3ccccc3n2c1NCCO
2.2% (inactive)

###

run-description: NCI Yeast Anticancer Drug Screen. Data for the bub3 strain (AID 167)
run-conditions: S. cerevisiae bub3 mutant strain, at 50.0 µM, active compounds read high
Method: Growth inhibition of yeast strains with defined genetic alterations is measured as a screen for potential anti-cancer activity. Selected strains with alterations in DNA damage repair or cell cycle control were exposed to compounds and growth inhibition was measured relative to vehicle treated controls. The strain used in this assay is bub3
The panel holds about 79,000 compounds, 15% with a hit somewhere; the sample as a whole holds those more often.
reported-property: growth inhibition (%)
Give the quantity in %, number only.

>  <compound>
CCc1ccc2ccccc2c1N

>  <growth inhibition, %>
-0.3

$$$$
>  <compound>
CCOC(=O)C1=C2c3ccc4cc(OC)ccc4c3CCC2(C)C(=O)C1 (configuration not stated)

>  <growth inhibition, %>
-11.2

$$$$
>  <compound>
Oc1ccc2ccccc2c1C=Nc1ccc(SSc2ccc(N=Cc3c(O)ccc4ccccc34)cc2)cc1

>  <growth inhibition, %>
0.9

$$$$

I am curious: what growth inhibition value has been reported for CCCC(C)C(=O)OC1CCCC1 (configuration not stated) ?
13.6

Moving on to CCOC(=O)CNC(=O)C(CCSCc1ccccc1)NC(=O)OCc1ccccc1 (configuration not stated)
4.45

###

run-description: NCI Yeast Anticancer Drug Screen. Data for the rad50 strain (AID 155);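 further: 0% = growth of vehicle-only cultures of the same strain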
run-conditions: S. cerevisiae rad50 strain growth inhibition; at 50.0 µM; active compounds read high
Method: Growth inhibition of yeast strains with defined genetic alterations is measured as a screen for potential anti-cancer activity. Selected strains with alterations in DNA damage repair or cell cycle control were exposed to compounds and growth inhibition was measured relative to vehicle treated controls. The strain used in this assay is rad50
The panel holds about 79,000 compounds, 15% with a hit somewhere; the sample as a whole holds those more often.
reported-property: growth inhibition (%)
Give the quantity in %, number only.

I am curious: what growth inhibition value has been reported for CCOc1cc2c(cc1C(C)c1ccc(OCc3ccccc3)cc1)OCO2 (configuration not stated) ?
6.55

Moving on to NC(=O)/N=C/NC(N)=O
21.6

Moving on to N#Cc1ccccc1C#N
-0.8

Moving on to Cc1ccc(NC(=O)/C=C/c2ccccc2)cc1
-2.85

Moving on to CN1C(C)(C)CC(CN2c3ccccc3Sc3ccccc32)C1(C)C (configuration not stated)
34.2

Moving on to O=C(Nc1ccn(C2CCC(COC(c3ccccc3)(c3ccccc3)c3ccccc3)O2)c(=O)n1)c1ccccc1 (configuration not stated)
8.05

Moving on to CCOc1ccc2nc(NC(=O)CC(C)=O)sc2c1
-17.6

###

run-description: NCI Yeast Anticancer Drug Screen. Data for the cln2 rad14 strain (AID 165);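 further: 0% = growth equal to vehicle treated cultures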
run-conditions: S. cerevisiae cln2 rad14 strain, at 50.0 µM, active compounds read high
About 79,000 compounds went through this panel and 15% of them were active in at least one assay; those are over-represented in the sample as a whole.
reported-property: growth inhibition (%)
Give the quantity in %, number only.

Consider the following illustrative entries.
>  <compound>
COc1c(O)c2c3c(cc(C)cc3c1C(C)C)OC2

>  <numeric-result>
93.1

$$$$
>  <compound>
C#Cc1nc(N)c2ncn(C3OC(COS(N)(=O)=O)C(O)C3O)c2n1 (stereo not drawn)

>  <numeric-result>
28.4

$$$$
>  <compound>
CCC(C)(O)Cc1ccccc1Cl (stereo not drawn)

>  <numeric-result>
17.1

$$$$
>  <compound>
CCSC(C(O)C(O)C(O)C(O)CO)n1cnc2c(SC)ncnc21 (stereo not drawn)

>  <numeric-result>
-26

$$$$
>  <compound>
Cc1ncc(CO)c(CN)c1O

>  <numeric-result>
-23.4

$$$$

I am curious: what growth inhibition value has been reported for c1ccc2c(c1)CSc1ccccc1-2 ?
-12.2

###

run-description: NCI Yeast Anticancer Drug Screen. Data for the mec2-1 strain (AID 157)
run-conditions: S. cerevisiae mec2-1 strain, at 50.0 µM, active compounds read high
Compounds without any hit were thinned out: in the full panel of roughly 79,000, 15% have a hit.
Below, each entry is listed alongside its reported growth inhibition.
Give the quantity in %, number only.

Consider the following illustrative entries.
>  <molecule>
CC1=C(O)/C(=C/C(C)CCC/C(C)=C/C=C/C(C)CCCc2ccoc2)OC1=O (stereo not drawn)

>  <numeric-result>
-4.65

$$$$
>  <molecule>
O=C(Sc1ccccc1)C1OC1c1ccccc1 (stereo not drawn)

>  <numeric-result>
28.6

$$$$
>  <molecule>
O=C(C[n+]1ccccc1CCCO)c1ccc(F)cc1

>  <numeric-result>
-19.7

$$$$
>  <molecule>
COc1ccc(-c2ccccc2C(=O)O)cc1

>  <numeric-result>
-14.8

$$$$
>  <molecule>
Cc1ccc2nnc(NS(=O)(=O)c3cc(C)c(Cl)cc3S)n2n1

>  <numeric-result>
-7.75

$$$$
>  <molecule>
CCOC(=O)/C(=C/c1ccc(C#N)cc1)N(CC)CC

>  <numeric-result>
-13.1

$$$$

I am curious: what growth inhibition value has been reported for CN(C)C(=O)NCc1cccnc1 ?
10.9

Moving on to CC(Br)CCl (stereo not drawn)
17.1

Moving on to Cc1cc(C(=O)O)c2cc(Br)ccc2n1
12.3

Moving on to COc1cc(OC)cc(OCc2nc3cc(C(F)(F)F)ccc3nc2-c2ccccc2)c1
-3.5

Moving on to CC#CC(C)(C)N(C)C
-8.45

Moving on to O=C(O)CCc1ccncc1
9

Moving on to O=C1C=CC(=O)C2CC=CCC12 (stereo not drawn)
50.4

###

run-description: NCI Yeast Anticancer Drug Screen. Data for the sgs1 mgt1 strain (AID 161);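 further: 0% = growth of cultures given vehicle only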
run-conditions: S. cerevisiae sgs1 mgt1 strain, at 50.0 µM, active compounds read high
Compounds without any hit were thinned out: in the full panel of roughly 79,000, 15% have a hit.
Below, each entry is listed alongside its reported growth inhibition.
Give the quantity in %, number only.

Consider the following illustrative entries.
>  <compound>
CCC[CH2][Sn]([CH2]CCC)([O]C(=O)c1nccnc1N)[O]C(=O)c1nccnc1N

>  <units-symbol>
%

>  <growth inhibition>
93

$$$$
>  <compound>
CC(=O)/C(C=Nc1c(C)n(C)n(C)c1=O)=C(/O)c1ccccc1

>  <units-symbol>
%

>  <growth inhibition>
-10.4

$$$$
>  <compound>
O=C(O)c1ccc[n+](Cc2ccccc2)c1

>  <units-symbol>
%

>  <growth inhibition>
-5.15

$$$$
>  <compound>
CC(=O)OC1CCC2(C)C3C/C(=N\O)C4(C)C(C(C)OC(C)=O)CCC4C3CCC2(C)C1 (centres undefined)

>  <units-symbol>
%

>  <growth inhibition>
96

$$$$
>  <compound>
O=C(NNCCO)C(O)C(O)C(O)C(O)CO (centres undefined)

>  <units-symbol>
%

>  <growth inhibition>
2.95

$$$$

I am curious: what growth inhibition value has been reported for Cc1cccc(Cl)c1NC(=O)NCCCN1CCOCC1 ?
6.2

Moving on to Cc1cnc(-c2ccccc2)o1
-4.8
